Values from paper PMC5540273

Tested on: CDC2L2
condition.summary: concentration: 1 μM, replicates: in singlicate; n = 1;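 also: KINOMEscan kinase panel screen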
Catalogue of compounds with associated %Inh
measurement.name: %Inh (%)

chemical.string: CCC(=O)c1c(-c2ccccc2)c2cc(Cl)ccc2c(=O)n1Cc1cc(S(C)(=O)=O)n(CC(F)F)n1
endpoint.result: 2
//
chemical.string: COC(=O)c1c(-c2ccccc2)c2cc(Br)ccc2c(=O)n1Cc1ccc(S(C)(=O)=O)cc1
endpoint.result: 0
//
chemical.string: Cc1c(Cn2c(C)nn3c(=O)cc(N4CCO[C@H](C)C4)nc23)cccc1C(F)(F)F
endpoint.result: 8
//
chemical.string: CN1C(=O)C(Nc2ccccc2)=C(c2ccccc2)C1=O
endpoint.result: 0

###

Listed here: items and their measured %Inh.
Tested on: CDK3
condition.summary: concentration: 1 μM, replicates: in singlicate; n = 1
measurement.name: %Inh

chemical.string: Cc1cccc(-c2cc(-c3c[nH]nc3-c3ccccn3)ccn2)c1
endpoint.result: 9%
//
chemical.string: CCCC(=O)Nc1n[nH]c2ncc(-c3cccc4ccccc34)cc12
endpoint.result: 51%
//
chemical.string: COC(=O)c1c(-c2ccccc2)c2cc(Br)ccc2c(=O)n1Cc1ccc(S(C)(=O)=O)cc1
endpoint.result: 0%
//
chemical.string: O=C(NCCNc1ccnc(Nc2ccc(F)cc2)n1)Nc1ccc2c(c1)OCO2
endpoint.result: 0%

###

Test system: PIK4CB
Construct: gene PI4KB
condition.summary: concentration: 1 μM, replicates: in singlicate; n = 1

chemical.string: CCn1c(-c2ccoc2)nc2cnccc21
output.unit: %
%Inh: 20

chemical.string: COc1cccc(-n2cnc3c(N)ncnc32)c1
output.unit: %
%Inh: 41

chemical.string: COC(=O)c1c(-c2ccccc2)c2cc(Br)ccc2c(=O)n1Cc1ccc(NC(=O)CCC(=O)O)cc1
output.unit: %
%Inh: 0

chemical.string: CCC(=O)c1c(-c2ccccc2)c2cc(Cl)ccc2c(=O)n1Cc1cc(S(C)(=O)=O)n(CC(N)=O)n1
output.unit: %
%Inh: 0

chemical.string: Cc1nn2c(=O)cc(N3CCOCC3)nc2n1Cc1cccc(Cl)c1Cl
output.unit: %
%Inh: 0

###

System: BRSK2
condition.summary: concentration: 1 μM, replicates: in singlicate; n = 1

chemical.string: CC(C)(C)c1ccc(C(=O)Nc2cn3cc(-c4ccccc4)ccc3n2)cc1
%Inh, %: 0
//
chemical.string: CCC(=O)c1c(-c2ccccc2)c2cc(Cl)ccc2c(=O)n1Cc1cc(S(C)(=O)=O)n(CC(N)=O)n1
%Inh, %: 0
//
chemical.string: COC(=O)c1c(-c2ccccc2)c2cc(Br)ccc2c(=O)n1Cc1ccc(NC(=O)CCC(=O)O)cc1
%Inh, %: 0
//
chemical.string: Cc1nnc(-c2ccc(C)c(-c3ccc(C(=O)O)cc3)c2)o1
%Inh, %: 8
//
chemical.string: Cc1cccc(-c2cc(-c3c[nH]nc3-c3ccccn3)ccn2)c1
%Inh, %: 0
//
chemical.string: Cl.NS(=O)(=O)c1cccc(Nc2cc(-c3ccc(F)cc3)n[nH]2)c1
%Inh, %: 0
//
chemical.string: CCCC(=O)Nc1n[nH]c2ncc(-c3cccc4ccccc34)cc12
%Inh, %: 0
//
chemical.string: OCCCNc1nccc(-c2c(-c3cccc(C(F)(F)F)c3)nn3cc(C(F)(F)F)ccc23)n1
%Inh, %: 0
//
chemical.string: Cc1ccc(Oc2ccc(Nc3ncnc4cc[nH]c34)cc2C)cn1
%Inh, %: 19

###

Test system: MAP4K5
condition.summary: concentration: 1 μM, replicates: in singlicate; n = 1
measurement.name: %Inh (%)

chemical.string: Cc1nc(N(C)[C@H]2CN(C(=O)CC#N)CC[C@H]2C)c2cc[nH]c2n1
endpoint.result: 0

chemical.string: COC(=O)c1c(-c2ccccc2)c2cc(Br)ccc2c(=O)n1Cc1ccc(S(C)(=O)=O)cc1
endpoint.result: 0

chemical.string: O=C(Nc1n[nH]c2nc(-c3ccccc3)c(Br)cc12)C1CC1
endpoint.result: 13

chemical.string: CCCNC(=O)Nc1ccc(Oc2ncnc3ccn(C)c23)cc1
endpoint.result: 0

chemical.string: COc1cc2ncn(-c3cc(OCCCc4ccccc4)c(C(N)=O)s3)c2cc1OC
endpoint.result: 39

###

System: HIPK1
condition.summary: concentration: 1 μM, replicates: in singlicate; n = 1

molecule: COc1ccc(-n2cnc3c(N)ncnc32)cc1 [SKF-97236]
output.unit: %
%Inh: 24
//
molecule: Cn1c(=O)c(F)c(Nc2ccc(I)cc2F)c2c(=O)n(OC[C@H](O)CO)cnc21
output.unit: %
%Inh: 52
//
molecule: COc1cc(Nc2ccnc3ccc(C(F)(F)F)cc23)cc(OC)c1OC [GW577382]
output.unit: %
%Inh: 5
//
molecule: CCC(=O)c1c(-c2ccccc2)c2cc(Cl)ccc2c(=O)n1Cc1ccc(C(=O)O)cc1
output.unit: %
%Inh: 10
//
molecule: Cc1nnc(-c2ccc3ncn(-c4ccc(S(C)=O)cc4)c3c2)o1 (stereo not drawn)
output.unit: %
%Inh: 28
//
molecule: Nc1n[nH]c2ncc(-c3ccccc3)cc12 [SB-517081]
output.unit: %
%Inh: 0
//
molecule: O=C(NCc1cccs1)c1cc(C(=O)c2c(Cl)cccc2Cl)c[nH]1 [GW823670]
output.unit: %
%Inh: 17
//
molecule: Nc1nccc2scc(-c3ccc4c(c3)CCN4C(=O)Cc3ccccc3)c12 [GSK2576924]
output.unit: %
%Inh: 0
//
molecule: OCCCNc1nccc(-c2c(-c3cccc(C(F)(F)F)c3)nn3cc(C(F)(F)F)ccc23)n1 [GW630813]
output.unit: %
%Inh: 0

###

Test system: CDK4-cyclinD1
condition.summary: concentration: 1 μM, replicates: in singlicate; n = 1
As shown below, each of these molecules has a reported %Inh value.

molecule: O=C(Nc1n[nH]c2nc(-c3ccccc3)c(Cl)cc12)C1CC1 [SB-734909]
tested.target: CDK4-cyclinD1
%Inh (%): 0
//
molecule: COc1ccc(-c2coc3ccc(-c4nnc(SCc5cccc(C#N)c5)o4)cc23)cc1
tested.target: CDK4-cyclinD1
%Inh (%): 0
//
molecule: FC(F)(F)c1ccc(-c2ncn(CCCN3CCOCC3)c2-c2ccncc2)cc1 [SB-217780]
tested.target: CDK4-cyclinD1
%Inh (%): 0
//
molecule: COc1cc2ncn(-c3cc(OCCCc4ccccc4)c(C(N)=O)s3)c2cc1OC [GSK205189]
tested.target: CDK4-cyclinD1
%Inh (%): 0
//
molecule: COc1cc(Nc2nccc(N3CCC(NC(=O)C(C)c4ccc(Cl)cc4)C3)n2)cc(OC)c1OC (stereo not drawn) [GSK1379757]
tested.target: CDK4-cyclinD1
%Inh (%): 0
//
molecule: CN1C(=O)C(Nc2ccccc2)=C(c2ccccc2)C1=O [SB-300079]
tested.target: CDK4-cyclinD1
%Inh (%): 9
//
molecule: COc1cccc(C2=C(Nc3cccc(C(=O)O)c3)C(=O)NC2=O)c1 [SB-390770]
tested.target: CDK4-cyclinD1
%Inh (%): 9
//
molecule: CCC(=O)c1c(-c2ccccc2)c2cc(Cl)ccc2c(=O)n1Cc1cc(C(=O)NC2CC2)n(C)n1
tested.target: CDK4-cyclinD1
%Inh (%): 3
//
molecule: CN(C)c1cc(-c2ccc3c(N)n[nH]c3c2)nc(N)n1 [GSK2219329]
tested.target: CDK4-cyclinD1
%Inh (%): 0

###

System: S6K1
condition.summary: concentration: 1 μM, replicates: in singlicate; n = 1
Overview of recorded %Inh for various compounds
measurement.name: %Inh (%)

compound: COC(=O)c1c(-c2ccccc2)c2cc(Br)ccc2c(=O)n1Cc1ccc(NC(=O)CCC(=O)O)cc1
output.unit: %
endpoint.result: 0
--
compound: CN(C)c1cc(-c2ccc3c(N)n[nH]c3c2)nc(N)n1
output.unit: %
endpoint.result: 2
--
compound: CCc1nc(-c2cccc(C)c2)c(-c2ccncc2)s1
output.unit: %
endpoint.result: 0
--
compound: CCn1c(-c2ccoc2)nc2cnccc21
output.unit: %
endpoint.result: 18
--
compound: COc1cc2ncn(-c3cc(OCc4ccc(S(C)(=O)=O)cc4)c(C(N)=O)s3)c2cc1OC
output.unit: %
endpoint.result: 19
--
compound: O=C(NCc1cccs1)c1cc(C(=O)c2c(Cl)cccc2Cl)c[nH]1
output.unit: %
endpoint.result: 7
--
compound: COc1ccc(-c2cc3c(C)nc(N)nc3n([C@H]3CC[C@H](O)CC3)c2=O)cn1
output.unit: %
endpoint.result: 0
--
compound: O=C(Nc1ccc2c(c1)OCO2)NC1CCN(c2ccnc(NCc3ccc(F)cc3)n2)CC1
output.unit: %
endpoint.result: 8
--
compound: COc1cc2nccc(Nc3cccc(Oc4ccccc4)c3)c2cc1OC.Cl
output.unit: %
endpoint.result: 0
--
compound: COc1ccc(-n2cnc3c(N)ncnc32)cc1
output.unit: %
endpoint.result: 9
--
compound: CCCNC(=O)Nc1ccc(Oc2ncnc3ccn(C)c23)cc1
output.unit: %
endpoint.result: 0
--
compound: Cl.c1ccc(Cn2cnc3cc(Nc4ncnc5ccccc45)ccc32)cc1
output.unit: %
endpoint.result: 0
--
compound: Cc1nc(N(C)[C@H]2CN(C(=O)CC#N)CC[C@H]2C)c2cc[nH]c2n1
output.unit: %
endpoint.result: 0
--
compound: Cc1nnc(-c2ccc3ncn(-c4ccc(S(C)=O)cc4)c3c2)o1 (stereo not shown)
output.unit: %
endpoint.result: 0
--
compound: Cc1c(Cn2c(C)nn3c(=O)cc(N4CCO[C@H](C)C4)nc23)cccc1C(F)(F)F
output.unit: %
endpoint.result: 9
--
compound: Cc1ccc(-c2ccc3c(ccc4sc5c(c43)NC[C@@H](C)N=C5N(C)C)n2)cn1
output.unit: %
endpoint.result: 0
--
compound: Cc1nnc(-c2ccc(C)c(-c3ccc(C(=O)O)cc3)c2)o1
output.unit: %
endpoint.result: 10
--
compound: COC(=O)c1c(-c2ccccc2)c2cc(Br)ccc2c(=O)n1Cc1ccc(S(C)(=O)=O)cc1
output.unit: %
endpoint.result: 0
--
compound: O=c1cc(N2CCOCC2)nc2n(Cc3ccc(F)c(Cl)c3)ccn12
output.unit: %
endpoint.result: 0
